Where do the numbers come from? From PubChem BioAssay AID1159580.

Documented normalized growth across a set of molecules
- Experiment summary: chemical genetic growth profiling, strain panel (AID 1159580);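 further: tested at 20 µM; growth read once vehicle control cultures reached saturation at 30 °C; 1 = growth at the plate median or of vehicle wells; lower values mean less growth of the strain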
- Run parameters: S. cerevisiae deletion strains, growth OD, locus YDL185W, strain tfp1, active compounds read low
The whole screen tested about 5,500 compounds, of which about 2,000 (36%) were called active. Inconclusive results (about 18%) are left out. The list shows a part of the results.
Lab note: jot the number down without any unit.

Examples with their reported normalized growth follow.
- N[C@H](Cc1ccccc1)C(=O)O: 1
- CN(C)N=Nc1nc[nH]c1C(N)=O: 0.997
- COc1cc(S(C)=O)ccc1-c1nc2ncccc2[nH]1 (stereo not given): 0.98

Give a short answer stating reported normalized growth for O=c1cc(-c2ccccc2)oc2cc(O)c(O)c(O)c12 .
0.549

Give a short answer stating reported normalized growth for N[C@H](Cc1cc(I)c(Oc2ccc(O)c(I)c2)c(I)c1)C(=O)O .
0.996

* * *

- Experiment summary: chemical genetic growth profiling, strain panel (AID 1159580)
- Run parameters: S. cerevisiae deletion strains, growth OD, locus YJL095W, strain BCK1 (second series), active compounds read low
Out of some 5,500 compounds screened, about 2,000 (36%) were called active. About 18% were inconclusive and are not listed. Some of the results follow.
Documented normalized growth across a set of compounds
Lab note: jot the number down without any unit.

- CN1CCN(C2=Nc3ccccc3Oc3ccc(Cl)cc32)CC1: 0.964
- OC[C@H]1OC([S-])[C@H](O)[C@@H](O)[C@@H]1O.[Au+] (stereo partly drawn): 1.01
- O=C(O)CCCOc1ccc(Cl)cc1Cl: 0.95
- COC(=O)CCCOc1ccc(Cl)cc1Cl: 0.955
- Nc1cc(-c2ccncc2)c[nH]c1=O: 0.714

Give a short answer stating reported normalized growth for COc1cc(S(C)=O)ccc1-c1nc2ncccc2[nH]1 (stereo not drawn) .
0.972

Give a short answer stating reported normalized growth for N[C@@H]1[C@@H](O)[C@H](O)[C@@H](CO)O[C@H]1O .
1.01

Give a short answer stating reported normalized growth for CN[C@@H]1[C@H](OC2[C@H](O[C@H]3[C@H](O)[C@@H](O)[C@H](N=C(N)N)[C@@H](O)[C@@H]3N=C(N)N)O[C@@H](C)[C@]2(O)C=O)O[C@@H](CO)[C@H](O)[C@H]1O (stereo partly drawn) .
1.01

Give a short answer stating reported normalized growth for CN(C)N=Nc1nc[nH]c1C(N)=O .
0.966

* * *

Documented normalized growth across a set of compounds
- Experiment summary: chemical genetic growth profiling, strain panel (AID 1159580)
- Run parameters: S. cerevisiae deletion strains, growth OD, locus YLL041C, strain sdh2, active compounds read low
Screen size: about 5,500 compounds; about 2,000 (36%) were called active. Roughly 18% stayed inconclusive and do not appear here. Some of the results follow.
Lab note: jot the number down without any unit.

- O=[N+]([O-])c1cccc2c(Br)[nH]nc12: 0.976

Give a short answer stating reported normalized growth for COC(=O)CCC(C)[C@H]1CCC2C3C(C[C@H](O)[C@@]21C)[C@@]1(C)CC[C@@H](O)C[C@H]1C[C@H]3O (stereo partly drawn) .
1.01

* * *

- Experiment summary: chemical genetic growth profiling, strain panel (AID 1159580)
- Run parameters: S. cerevisiae deletion strains, growth OD, locus YJL115W, strain asf1, active compounds read low
Hit rate of the full screen: of about 5,500 compounds, about 2,000 (36%) were called active. Not shown: some 18% with an inconclusive outcome. Some of the results follow.
Documented normalized growth across a set of molecules

Examples with their reported normalized growth follow.
- CCCCS(=N)(=O)CCC(N)C(=O)O (stereo unspecified): 0.996 (inactive)
- CSc1ccc2c(c1)N(CCC1CCCCN1C)c1ccccc1S2 (stereo unspecified): 1.01 (inactive)
- OC[C@H]1OC([S-])[C@H](O)[C@@H](O)[C@@H]1O.[Au+] (stereo partly specified): 1.01 (inactive)
- CCCCC[C@H](CC(=O)NO)C(=O)N[C@H](C(=O)N1CCC[C@H]1CO)C(C)C: 1 (inactive)
- NC(=O)c1ncn(C2O[C@H](CO)[C@@H](O)[C@H]2O)c1N (stereo partly specified): 1.03 (inactive)
- O=C(O)CCC(=O)Nc1ccc(S(=O)(=O)Nc2nccs2)cc1: 0.997 (inactive)

Give a short answer stating reported normalized growth for C[C@H](N)[C@H](O)c1cccc(O)c1 .
1.01 (inactive)

Give a short answer stating reported normalized growth for c1ccc2c(c1)CN1CCCC1=N2 .
1 (inactive)

Give a short answer stating reported normalized growth for CCN(CC)CCOC(=O)C(c1ccccc1)c1ccccc1 .
0.949 (inactive)

Give a short answer stating reported normalized growth for C/C=C/C(=O)N(CC)c1ccccc1C .
1 (inactive)

Give a short answer stating reported normalized growth for NCC(CC(=O)O)c1ccc(Cl)cc1 (stereo unspecified) .
1.02 (inactive)

* * *

- Experiment summary: chemical genetic growth profiling, strain panel (AID 1159580)
- Run parameters: S. cerevisiae deletion strains, growth OD, locus YOR001W, strain rrp6, active compounds read low
Out of some 5,500 compounds screened, about 2,000 (36%) were called active. Another 18% or so got no clear call; they are omitted. This is one part of the list.
# if measured normalized growth < 1: True  # else: False

• C=Cc1c(C)c2[n-]c1=Cc1[n-]c(c(CC)c1C)C=c1[n-]c3c(c1C)C(=O)C(C(=O)[O-])C=3c1[n-]c(c(C)c1CCC(=O)[O-])C=2.[Cu] (centres undefined) = False

As a next step, examine the molecule that follows.
API: query returns whether the molecule falls strictly under 1 in normalized growth. Query: C[C@H](CCC(=O)O)[C@H]1CCC2C3C(CC[C@@]21C)[C@@]1(C)CC[C@@H](O)C[C@H]1C[C@@H]3O (some centres undefined)
True

* * *

Documented normalized growth across a set of compounds
- Experiment summary: chemical genetic growth profiling, strain panel (AID 1159580);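 further: tested at 20 µM; growth read once vehicle control cultures reached saturation at 30 °C; 1 = growth at the plate median or of vehicle wells; lower values mean less growth of the strain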
- Run parameters: S. cerevisiae deletion strains, growth OD, locus YKR001C, strain vps1, active compounds read low
Screen size: about 5,500 compounds; about 2,000 (36%) were called active. Not shown: some 18% with an inconclusive outcome. The list shows a part of the results.
Lab note: jot the number down without any unit.

Examples with their reported normalized growth follow.
• C=C1[C@H]2CC[C@@]3(C)[C@H](c4ccoc4)OC(=O)C[C@]13O[C@H]1C[C@H](O)C(C)(C)[C@H](CC(=O)OC)[C@]12C = 1.01
• CC(CN(C)C)CN1c2ccccc2CCc2ccccc21 (stereo unspecified) = 1.02
• CC(=O)N=c1sc(S(N)(=O)=O)nn1C = 0.998
• C=C1C(C2(C)C=CC(=O)C(C)(C)C2CC(=O)OC)CC[C@@]2(C)[C@H](c3ccoc3)OC(=O)C3OC132 (stereo partly specified) = 0.992
• CCC(=O)c1ccc2c(c1)N(CC(C)N(C)C)c1ccccc1S2 (stereo unspecified) = 0.967

Proceed to the following item.
Give a short answer stating reported normalized growth for CNCCCN1c2ccccc2CCc2ccccc21 .
0.997

* * *

- Experiment summary: chemical genetic growth profiling, strain panel (AID 1159580);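 further: tested at 20 µM; growth read once vehicle control cultures reached saturation at 30 °C; 1 = growth at the plate median or of vehicle wells; lower values mean less growth of the strain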
- Run parameters: S. cerevisiae deletion strains, growth OD, locus YLR039C, strain RIC1, active compounds read low
The campaign covered roughly 5,500 compounds. About 2,000 (36%) were called active. Roughly 18% stayed inconclusive and do not appear here. The list shows a part of the results.
# if measured normalized growth < 1: Satisfied  # else: Not satisfied

Answered examples (5):
• CCCC(C(=O)OCCN(CC)CC)(c1ccccc1)c1ccccc1 = Not satisfied
• C=C1C2CC[C@@]3(C)[C@H](c4ccoc4)OC(=O)C[C@]13O[C@H]1CC(O)C(C)(C)C(CC(=O)OC)[C@@]21C (some centres not stated) = Satisfied
• NNC(=O)c1ccccc1O = Satisfied
• C=C1C(C2(C)C=CC(=O)C(C)(C)C2CC(=O)OC)CC[C@@]2(C)[C@H](c3ccoc3)OC(=O)C3OC132 (some centres not stated) = Satisfied
• CC(CCC(=O)O)[C@H]1CCC2C3CC[C@@H]4CCCC[C@]4(C)C3CC[C@@]21C (some centres not stated) = Not satisfied

As a next step, examine the compound that follows.
API: query returns whether the compound falls strictly under 1 in normalized growth. Query: C=C1C2CC[C@@]3(C)[C@H](c4ccoc4)OC(=O)C[C@]13O[C@H]1CC(=O)C(C)(C)C(CC(=O)OC)[C@@]21C (some centres not stated)
Satisfied

* * *

- Experiment summary: chemical genetic growth profiling, strain panel (AID 1159580);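 further: tested at 20 µM; growth read once vehicle control cultures reached saturation at 30 °C; 1 = growth at the plate median or of vehicle wells; lower values mean less growth of the strain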
- Run parameters: S. cerevisiae deletion strains, growth OD, locus YNR052C, strain pop2
In all, about 5,500 compounds went through this assay and about 2,000 (36%) were called active. Another 18% or so got no clear call; they are omitted. Cut-off read from the data, not from the text of the source: active = normalized growth mostly below about 0.91 (no sharp cut-off); inconclusive = no clear call, values can overlap the other calls; inactive = mostly above about 0.92. Some of the results follow.
Use one of these outcomes when replying: True = active, False = inactive

* Cc1cc(O)c(C=O)c2c1C(=O)Oc1c(COC(=O)/C=C/C(=O)O)c(O)c(C(=O)O)c(C)c1O2 | False

As a next step, examine the compound that follows.
Test call for this compound, please: N[C@@H](Cc1cc(I)c(Oc2cc(I)c(O)c(I)c2)c(I)c1)C(=O)O
True
